- Tested on: Caco-2
- Run description: cell viability relative to DMSO; higher = less toxic
- Measurement parameters: 72 h; 1000 nM
Doc: threshold 90% (exclusive). Items with cell viability beneath it return y; others return n.

O=C(CCc1ccncc1)NNC(=O)N1Cc2ccccc2Oc2ccc(Cl)cc21 : n

Query :: API: query returns whether the compound falls strictly under 90% in cell viability. Query: COc1cc(Br)c(Nc2nc(-c3c(C)nc4ncccn34)cs2)c(Br)c1 [PTC-209]
Result :: y

Query :: API: query returns whether the compound falls strictly under 90% in cell viability. Query: `Cc1cccn2c(=O)c(/C=C(\C#N)c3nc4ccccc4s3)c(Oc3ccc(F)cc3)nc12`
Result :: n

Query :: API: query returns whether the compound falls strictly under 90% in cell viability. Query: O=C(Nc1cc(C(F)(F)F)cc(C(F)(F)F)c1)Nc1c(Br)cc(Br)cc1-c1nnn[nH]1 [NS-5806]
Result :: n
